// reported IC50 for each item listed
- tested_on: Dopamine receptor (Bos taurus, UniProt Q95136+P20288)
- experiment_summary: Inhibitory binding activity against dopamine receptor using [3H]ADTN as the radioligand in striatal tissue of calf brain.
- Format: tissue-based, Striatum
attribute_measured: IC50 (µM)

                                   molecule  attribute_measured  value_measured
0  CN1C[C@H](CC#N)C[C@@H]2c3cccc4[nH]c(Cl)c(c34)C[C@H]21                IC50             4.5
1           Br.CCCN(CCC)C1Cc2cc(O)c(O)cc2C1                IC50             412
2  Br.CCN(CC)C1Cc2ccc(O)c(O)c2C1 (centres undefined)                IC50              39
3  Br.CCN(CC)C1Cc2ccc(OC)c(OC)c2C1 (centres undefined)                IC50            1660
4  CCCNC1Cc2ccc(OC)c(OC)c2C1.Cl (centres undefined)                IC50           51000
5               Br.CN(C)C1Cc2cc(O)c(O)cc2C1                IC50               6
6  Br.CCCN(CCC)C1Cc2ccc(O)c(O)c2C1 (centres undefined)                IC50              10
7             COc1cc2c(cc1OC)CC(N(C)C)C2.Cl                IC50             400
8  COc1ccc2c(c1OC)CC(N(C)C)C2 (centres undefined)                IC50            2300

====

- tested_on: Dopamine receptor (Bos taurus, UniProt Q95136+P20288)
- experiment_summary: Inhibitory binding activity against dopamine receptor using [3H]spiperone as the radioligand in striatal tissue of calf brain.
- Format: tissue-based, Striatum
attribute_measured: IC50 (µM)

>>> print(df.to_string())
                                    compound                                 tested_on  value_measured
 0             COc1cc2c(cc1OC)CC(N(C)C)C2.Cl  Dopamine receptor (Bos taurus, UniProt Q95136+P20288)              50
 1               Br.CN(C)C1Cc2cc(O)c(O)cc2C1  Dopamine receptor (Bos taurus, UniProt Q95136+P20288)             104
 2  Br.CCN(CC)C1Cc2ccc(O)c(O)c2C1 (stereo unspecified)  Dopamine receptor (Bos taurus, UniProt Q95136+P20288)             220
 3  COc1ccc2c(c1OC)CC(N(C)C)C2 (stereo unspecified)  Dopamine receptor (Bos taurus, UniProt Q95136+P20288)             100
 4  Br.CCN(CC)C1Cc2ccc(OC)c(OC)c2C1 (stereo unspecified)  Dopamine receptor (Bos taurus, UniProt Q95136+P20288)              29
 5  CN1C[C@H](CC#N)C[C@@H]2c3cccc4[nH]c(Cl)c(c34)C[C@H]21 [LERGOTRILE]  Dopamine receptor (Bos taurus, UniProt Q95136+P20288)            23.7
 6           Br.CCCN(CCC)C1Cc2cc(O)c(O)cc2C1  Dopamine receptor (Bos taurus, UniProt Q95136+P20288)            17.6
 7  CCCNC1Cc2ccc(OC)c(OC)c2C1.Cl (stereo unspecified)  Dopamine receptor (Bos taurus, UniProt Q95136+P20288)             105
 8         CCCN(CCC)C1Cc2cc(OC)c(OC)cc2C1.Cl  Dopamine receptor (Bos taurus, UniProt Q95136+P20288)            10.4
 9  Br.CCCN(CCC)C1Cc2ccc(O)c(O)c2C1 (stereo unspecified)  Dopamine receptor (Bos taurus, UniProt Q95136+P20288)           53.86
10             Br.CCN(CC)C1Cc2cc(O)c(O)cc2C1  Dopamine receptor (Bos taurus, UniProt Q95136+P20288)             246

Each recorded value in this set is attributed to ChEMBL document CHEMBL1121984.
